- Species on record: Rattus norvegicus
- protocol-description: DrugMatrix - Regimen: Daily Repeat
- Format: toxicity, organism-based, Sprague-Dawley
- Set-up: regimen Daily Repeat, gender Male, age 6-8 weeks
- condition-notes: in vivo, po, 0 mg/kg, 72 h, tissue Plasma, route oral GAVAGE, dose level Control, time 3 day, vehicle .5 % CMC
measure-name: ALBUMIN (G/DL)
Respond numerically; units are G/DL and should not be typed.

Some compounds with recorded ALBUMIN:
| compound | ALBUMIN (G/DL) |
| --- | --- |
| Clc1ccccc1CN1CCc2sccc2C1 [TICLOPIDINE] | 3.88 |
| O=C1Nc2ccc(Cl)cc2C(c2ccccc2Cl)=NC1O (stereo not drawn) [LORAZEPAM] | 4.15 |

Now look at this entry.
In one line, give reported ALBUMIN of the entry CC(=O)Oc1ccc(C(c2ccc(OC(C)=O)cc2)c2ccccn2)cc1 [BISACODYL] .
3.55

###

- Organism: Rattus norvegicus
- protocol-description: DrugMatrix - Regimen: Daily Repeat
- Format: toxicity, organism-based, Sprague-Dawley
- Design: regimen Daily Repeat, gender Male, age 6-8 weeks
- condition-notes: in vivo, po, 50 mg/kg, 72 h, tissue Plasma, route oral GAVAGE, dose level Low, time 3 day, vehicle .5 % CMC
Measured GLUCOSE accompanies every entry in the list below.

Some molecules with recorded GLUCOSE:
| molecule | GLUCOSE |
| --- | --- |
| NC1CCN(c2nc3c(cc2F)c(=O)c(C(=O)O)cn3-c2ccc(F)cc2F)C1 (centres undefined) [TOSUFLOXACIN] | 176.67 mg/dL |
| Cc1cccc(C)c1OCC(C)N (centres undefined) [MEXILETINE] | 168.67 mg/dL |
| CN(C)[C@@H]1C(O)=C(C(N)=O)C(=O)[C@@]2(O)C(O)=C3C(=O)c4c(O)ccc(Cl)c4[C@@](C)(O)[C@H]3C[C@@H]12 [CHLORTETRACYCLINE] | 157.67 mg/dL |

Now look at this entry.
In one line, give reported GLUCOSE of the entry CCN1CCC[C@H]1CNC(=O)c1cc(S(N)(=O)=O)ccc1OC [LEVOSULPIRIDE] .
187.67 mg/dL

###

- Species on record: Rattus norvegicus
- protocol-description: DrugMatrix - Regimen: Daily Repeat
- Format: toxicity, organism-based, Sprague-Dawley
- Set-up: regimen Daily Repeat, gender Male, age 6-8 weeks
- condition-notes: in vivo, sc, 0 mg/kg, 120 h, tissue Blood, route subcutaneous, dose level Control, time 5 day, […]
Measured HEMOGLOBIN accompanies every entry in the list below.
Respond numerically; units are G/DL and should not be typed.

| compound | numeric-result |
| --- | --- |
| CCN(CC)CCOCCC1=CCC2CC1C2(C)C (stereo not given) [MYRTECAINE] | 13.42 |
| CCC(=O)O[C@]1(C(=O)CCl)[C@@H](C)C[C@H]2[C@@H]3CCC4=CC(=O)C=C[C@]4(C)[C@@]3(F)[C@@H](O)C[C@@]21C [CLOBETASOL PROPIONATE] | 13.25 |
| Oc1c(Cl)cc(Cl)c(Cl)c1Cc1c(O)c(Cl)cc(Cl)c1Cl [HEXACHLOROPHENE] | 13.62 |
| O=C(Nc1ccc(Br)cc1)c1cc(Br)cc(Br)c1O [TRIBROMSALAN] | 13.25 |

Now look at this entry.
In one line, give reported HEMOGLOBIN of the entry CC(C)(C)CC(C)(C)c1ccc(OCCOCC[N+](C)(C)Cc2ccccc2)cc1.[Cl-] [BENZETHONIUM CHLORIDE] .
13.62

###

- Organism: Rattus norvegicus
- protocol-description: DrugMatrix - Regimen: Daily Repeat
- Type: toxicity, organism-based, Sprague-Dawley
- Design: regimen Daily Repeat, gender Male, age 6-8 weeks
- condition-notes: in vivo, sc, 0 mg/kg, 120 h, tissue Blood, route subcutaneous, dose level Control, time 5 day, […]
measure-name: HEMATOCRIT (%)
Respond numerically; units are % and should not be typed.

| compound | HEMATOCRIT (%) |
| --- | --- |
| O=C(Nc1ccc(Br)cc1)c1cc(Br)cc(Br)c1O | 35.82 |
| CCC(=O)O[C@]1(C(=O)CCl)[C@@H](C)C[C@H]2[C@@H]3CCC4=CC(=O)C=C[C@]4(C)[C@@]3(F)[C@@H](O)C[C@@]21C [CLOBETASOL PROPIONATE] | 35.82 |
| Oc1c(Cl)cc(Cl)c(Cl)c1Cc1c(O)c(Cl)cc(Cl)c1Cl | 36.05 |
| CCN(CC)CCOCCC1=CCC2CC1C2(C)C (stereo not given) | 33.65 |

In one line, give reported HEMATOCRIT of the entry CC(C)(C)CC(C)(C)c1ccc(OCCOCC[N+](C)(C)Cc2ccccc2)cc1.[Cl-] [BENZETHONIUM CHLORIDE] .
36.05

###

Measured ALANINE AMINOTRANSFERASE accompanies every entry in the list below.
- Species: Rattus norvegicus
- protocol-description: DrugMatrix - Regimen: Daily Repeat
- Format: toxicity, organism-based, Sprague-Dawley
- Parameters: regimen Daily Repeat, gender Male, age 6-8 weeks
- condition-notes: in vivo, po, 50 mg/kg, 120 h, tissue Plasma, route oral GAVAGE, dose level Low, time 5 day, vehicle .5 % CMC
Respond numerically; units are u/L and should not be typed.

Some compounds with recorded ALANINE AMINOTRANSFERASE:
| compound | ALANINE AMINOTRANSFERASE, u/L |
| --- | --- |
| CN(C)[C@@H]1C(O)=C(C(N)=O)C(=O)[C@@]2(O)C(O)=C3C(=O)c4c(O)ccc(Cl)c4[C@@](C)(O)[C@H]3C[C@@H]12 | 54 |
| CCN1CCC[C@H]1CNC(=O)c1cc(S(N)(=O)=O)ccc1OC [LEVOSULPIRIDE] | 42 |
| Cc1cccc(C)c1OCC(C)N (centres undefined) | 52 |

In one line, give reported ALANINE AMINOTRANSFERASE of the entry NC1CCN(c2nc3c(cc2F)c(=O)c(C(=O)O)cn3-c2ccc(F)cc2F)C1 (centres undefined) .
34

###

- Species on record: Rattus norvegicus
- protocol-description: DrugMatrix - Regimen: Daily Repeat
- Assay type: toxicity, organism-based, Sprague-Dawley
- Parameters: regimen Daily Repeat, gender Male, age 6-8 weeks
- condition-notes: in vivo, po, 0 mg/kg, 72 h, tissue Blood, route oral GAVAGE, dose level Control, time 3 day, […]
Measured MONOCYTE accompanies every entry in the list below.
Respond numerically; units are % and should not be typed.

Some molecules with recorded MONOCYTE:
| molecule | numeric-result |
| --- | --- |
| COc1cc(N)c(Cl)cc1C(=O)NC1CCN(CCCOc2ccc(F)cc2)CC1OC (centres undefined) [CISAPRIDE] | 0.67 |
| CC(C)(C)NC(=O)[C@H]1CC[C@H]2[C@@H]3CC[C@H]4NC(=O)C=C[C@]4(C)[C@H]3CC[C@]12C [FINASTERIDE] | 1.33 |
| CO[C@H]1/C=C/O[C@@]2(C)Oc3c(C)c(O)c4c(O)c(c(/C=N/N5CCN(C6CCCC6)CC5)c(O)c4c3C2=O)NC(=O)/C(C)=C\C=C\[C@H](C)[C@H](O)[C@@H](C)[C@@H](O)[C@@H](C)[C@H](OC(C)=O)[C@@H]1C [RIFAPENTINE] | 1 |

Now look at this entry.
In one line, give reported MONOCYTE of the entry Clc1ccc(COC(Cn2ccnc2)c2ccc(Cl)cc2Cl)cc1 (centres undefined) [ECONAZOLE] .
4.67

###

- Organism: Rattus norvegicus
- protocol-description: DrugMatrix - Regimen: Daily Repeat
- Type: toxicity, organism-based, Sprague-Dawley
- Parameters: regimen Daily Repeat, gender Male, age 6-8 weeks
- condition-notes: in vivo, po, 0 mg/kg, 120 h, tissue Blood, route oral GAVAGE, dose level Control, time 5 day, vehicle 100 % WATER
measure-name: PLATELET COUNT
Reply with the number and its unit after it.

Some compounds with recorded PLATELET COUNT:
| compound | PLATELET COUNT |
| --- | --- |
| C[C@]12C=CC(=O)C=C1CC[C@@H]1[C@@H]2[C@@H](O)C[C@@]2(C)[C@H]1CC[C@]2(O)C(=O)CO [PREDNISOLONE] | 1325.67 x10E3/uL |
| CS(=O)(=O)c1ccc([C@@H](O)[C@@H](CO)NC(=O)C(Cl)Cl)cc1 [THIAMPHENICOL] | 1337.67 x10E3/uL |

Now look at this entry.
In one line, give reported PLATELET COUNT of the entry CN(C)CCOC(c1ccccc1)c1ccccc1 [DIPHENHYDRAMINE] .
1198 x10E3/uL

###

- Species: Rattus norvegicus
- protocol-description: DrugMatrix - Regimen: Daily Repeat
- Assay type: toxicity, organism-based, Sprague-Dawley
- Set-up: regimen Daily Repeat, gender Male, age 6-8 weeks
- condition-notes: in vivo, po, 0 mg/kg, 120 h, tissue Blood, route oral GAVAGE, dose level Control, time 5 day, vehicle 100 % WATER
measure-name: MEAN CORPUSCULAR HEMOGLOBIN CONCENTRATION (G/DL)
Respond numerically; units are G/DL and should not be typed.

Some compounds with recorded MEAN CORPUSCULAR HEMOGLOBIN CONCENTRATION:
| compound | numeric-result |
| --- | --- |
| CS(=O)(=O)c1ccc([C@@H](O)[C@@H](CO)NC(=O)C(Cl)Cl)cc1 | 37.42 |
| Oc1cccc(O)c1O | 39.44 |
| O.O.O.O.O.O.[Cl-].[Cl-].[Sr+2] [STRONTIUM CHLORIDE HEXAHYDRATE] | 37.42 |
| CCN(CC)CCNC(=O)c1cc(S(C)(=O)=O)ccc1OC [TIAPRIDE] | 37.42 |
| C[C@]12C=CC(=O)C=C1CC[C@@H]1[C@@H]2[C@@H](O)C[C@@]2(C)[C@H]1CC[C@]2(O)C(=O)CO | 39.77 |

In one line, give reported MEAN CORPUSCULAR HEMOGLOBIN CONCENTRATION of the entry "Cc1ccc(NC(=O)c2ccc(CN3CCN(C)CC3)cc2)cc1Nc1nccc(-c2cccnc2)n1" .
37.42

In one line, give reported MEAN CORPUSCULAR HEMOGLOBIN CONCENTRATION of the entry NNc1nncc2ccccc12 [HYDRALAZINE] .
38.43

Data origin: ChEMBL document CHEMBL3885881
